System: A. baumannii CDC-0033
Experimental Protocol: microbe, parasite or virus in culture
Type: cell-based
Experimental Setup: Acinetobacter baumannii, CDC0033, read-out: MIC, A. baumannii CDC-0033
Observation Type: MIC

Example cases with answers are listed next.
1. O=C(O)c1c(F)ccc2c1OB(O)[C@@H](NC(=O)[C@H](NC(=O)N1CCN(C3CCN(C(=O)c4ccc(F)c(O)c4F)CC3)C1=O)c1cc(F)c(O)c(O)c1Cl)C2 (single isomer, unassigned); < 1 µg/mL
2. O=C(NCCCN1CCN(C(=O)NC(C(=O)N[C@H]2Cc3ccc(F)c(C(=O)O)c3OB2O)c2cc(F)c(O)c(O)c2Cl)C(=O)C1=O)c1ccc(F)c(O)c1 (stereo partly drawn); 2 to 4 µg/mL
3. O=C(NCCCN1CCN(C(=O)NC(C(=O)N[C@H]2Cc3ccc(F)c(C(=O)O)c3OB2O)c2cc(F)c(O)c(O)c2Cl)C(=O)C1=O)c1c(F)cc(O)cc1Cl (stereo partly drawn); 2 to 4 µg/mL
4. O=C(CN1CCN(C(=O)N[C@@H](C(=O)N[C@H]2Cc3ccc(F)c(C(=O)O)c3OB2O)c2cc(F)c(O)c(O)c2Cl)C(=O)C1=O)NCc1ccncc1; 8 to 16 µg/mL
5. O=C(O)c1c(F)ccc2c1OB(O)[C@@H](NC(=O)[C@H](NC(=O)N1CCN(Cc3ccc(O)c(O)c3Cl)C(=O)C1=O)c1ccc(P(=O)(O)O)cc1)C2 (single isomer, unassigned); < 1 µg/mL

Req: Kindly state the measured MIC obtained for O=C(NCCCN1CCN(C(=O)N[C@@H](C(=O)N[C@H]2Cc3ccc(F)c(C(=O)O)c3OB2O)c2cc(F)c(O)c(O)c2Cl)C(=O)C1=O)c1cc(F)nc(F)c1 (racemic) with A. baumannii CDC-0033.
Resp: 2 to 4 µg/mL

Req: Record: O=C(NCCCN1CCN(C(=O)NC(C(=O)N[C@H]2Cc3ccc(F)c(C(=O)O)c3OB2O)c2cc(F)c(O)c(O)c2Cl)C(=O)C1=O)c1ccc(F)c(O)c1F (stereo partly drawn)
Resp: 8 to 16 µg/mL
